As shown below, each of these compounds has a reported IC50 value.
experimental target: Replicase polyprotein 1ab (Severe acute respiratory syndrome coronavirus 2)
assay info: Inhibition of N-terminal his-tagged SARS-CoV-2 Main protease expressed in Escherichia coli BL21 (DE3) using Dabcyl-TSAVLWSGFRICMK-Edans as substrate preincubated for 10 mins by microplate reader analysis
Positions of bridges follow the written chain, without caps; N, C: chain ends. Residues, ends and D or L forms follow the SMILES beside them.
observation type: IC50 (nM)

compound	reading qualifier	test result
CC[C@H](C)[C@@H]1NC(=O)[C@@H](Cc2ccc(O)cc2)NC(=O)CSC[C@@H](C(=O)NCC(N)=O)NC(=O)[C@@H]2CCCN2C(=O)[C@H](CC(C)C)NC(=O)[C@H](CC(C)C)NC(=O)[C@H]([C@@H](C)O)NC(=O)[C@H](CC(N)=O)NC(=O)CNC(=O)[C@H](CO)NC(=O)[C@H](C)NC(=O)[C@H](Cc2ccccc2)NC(=O)[C@H](CCCNC(=N)N)NC1=O	=	250
CC(C)C[C@@H]1NC(=O)[C@H](CC(N)=O)NC(=O)[C@H](Cc2ccc(O)cc2)NC(=O)CSC[C@@H](C(=O)NCC(N)=O)NC(=O)[C@H](Cc2ccccc2)NC(=O)[C@H](CO)NC(=O)[C@H](CO)NC(=O)[C@H](CO)NC(=O)[C@H](Cc2c[nH]c3ccccc23)NC(=O)[C@H](CC(=O)O)NC(=O)[C@H](C)NC(=O)[C@H](CCCNC(=N)N)NC(=O)[C@H](CCC(N)=O)NC(=O)[C@H](Cc2ccccc2)NC1=O ({CH2CO}-YNLFQRADWSSSFCG-NH2; thioether N-14)	=	300
CC(C)C[C@@H]1NC(=O)[C@H](Cc2ccc(F)c(F)c2)NC(=O)[C@@H]2CCCN2C(=O)[C@H]([C@@H](C)O)NC(=O)[C@H]([C@@H](C)O)NC(=O)[C@H]([C@@H](C)O)NC(=O)[C@H](Cc2c[nH]cn2)NC(=O)[C@H](Cc2cccc(F)c2)NC(=O)[C@H]([C@@H](C)O)NC(=O)[C@H](C(C)C)NC(=O)[C@@H](Cc2ccc(O)cc2)NC(=O)CSC[C@@H](C(=O)NCC(N)=O)NC(=O)[C@@H]2CCCN2C(=O)[C@@H]2CCCN2C1=O	=	320
CC(C)C[C@@H]1NC(=O)[C@H](Cc2ccccc2)NC(=O)[C@@H]2CCCN2C(=O)[C@H]([C@@H](C)O)NC(=O)[C@H]([C@@H](C)O)NC(=O)[C@H]([C@@H](C)O)NC(=O)[C@H](Cc2c[nH]cn2)NC(=O)[C@H](C)NC(=O)[C@H]([C@@H](C)O)NC(=O)[C@H](C(C)C)NC(=O)[C@@H](Cc2ccc(O)cc2)NC(=O)CSC[C@@H](C(=O)NCC(N)=O)NC(=O)[C@@H]2CCCN2C(=O)[C@@H]2CCCN2C1=O	>	10000
CC(C)C[C@@H]1NC(=O)[C@H](Cc2ccccc2)NC(=O)[C@@H]2CCCN2C(=O)[C@H]([C@@H](C)O)NC(=O)[C@H](C)NC(=O)[C@H]([C@@H](C)O)NC(=O)[C@H](Cc2c[nH]cn2)NC(=O)[C@H](Cc2ccccc2)NC(=O)[C@H]([C@@H](C)O)NC(=O)[C@H](C(C)C)NC(=O)[C@@H](Cc2ccc(O)cc2)NC(=O)CSC[C@@H](C(=O)NCC(N)=O)NC(=O)[C@@H]2CCCN2C(=O)[C@@H]2CCCN2C1=O	=	200
CC(C)C[C@@H]1NC(=O)[C@H](Cc2ccccc2)NC(=O)[C@@H]2CCCN2C(=O)[C@H]([C@@H](C)O)NC(=O)[C@H]([C@@H](C)O)NC(=O)[C@H]([C@@H](C)O)NC(=O)[C@H](Cc2c[nH]cn2)NC(=O)[C@H](Cc2ccccc2)NC(=O)[C@H]([C@@H](C)O)NC(=O)[C@H](C(C)C)NC(=O)[C@@H](Cc2ccc(O)cc2)NC(=O)CSC[C@@H](C(=O)NCC(N)=O)NC(=O)[C@@H]2CCCN2C(=O)[C@@H]2CCCN2C1=O	=	300
CC(C)C[C@@H]1NC(=O)[C@H](Cc2ccccc2)NC(=O)[C@@H]2CCCN2C(=O)[C@H]([C@@H](C)O)NC(=O)[C@H]([C@@H](C)O)NC(=O)[C@H]([C@@H](C)O)NC(=O)[C@H](C)NC(=O)[C@H](Cc2ccccc2)NC(=O)[C@H]([C@@H](C)O)NC(=O)[C@H](C(C)C)NC(=O)[C@@H](Cc2ccc(O)cc2)NC(=O)CSC[C@@H](C(=O)NCC(N)=O)NC(=O)[C@@H]2CCCN2C(=O)[C@@H]2CCCN2C1=O	>	10000
CC(C)C[C@@H]1NC(=O)[C@H](Cc2ccccc2)NC(=O)[C@H](C)NC(=O)[C@H]([C@@H](C)O)NC(=O)[C@H]([C@@H](C)O)NC(=O)[C@H]([C@@H](C)O)NC(=O)[C@H](Cc2c[nH]cn2)NC(=O)[C@H](Cc2ccccc2)NC(=O)[C@H]([C@@H](C)O)NC(=O)[C@H](C(C)C)NC(=O)[C@@H](Cc2ccc(O)cc2)NC(=O)CSC[C@@H](C(=O)NCC(N)=O)NC(=O)[C@@H]2CCCN2C(=O)[C@@H]2CCCN2C1=O	=	390
CC(C)C[C@@H]1NC(=O)[C@H](Cc2ccccc2)NC(=O)[C@@H]2CCCN2C(=O)[C@H]([C@@H](C)O)NC(=O)[C@H]([C@@H](C)O)NC(=O)[C@H]([C@@H](C)O)NC(=O)[C@H](Cc2c[nH]cn2)NC(=O)[C@H](Cc2ccccc2)NC(=O)[C@H](C)NC(=O)[C@H](C(C)C)NC(=O)[C@@H](Cc2ccc(O)cc2)NC(=O)CSC[C@@H](C(=O)NCC(N)=O)NC(=O)[C@@H]2CCCN2C(=O)[C@@H]2CCCN2C1=O	=	1650
CC(C)C[C@@H]1NC(=O)[C@H](Cc2ccccc2)NC(=O)[C@@H]2CCCN2C(=O)[C@H]([C@@H](C)O)NC(=O)[C@H]([C@@H](C)O)NC(=O)[C@H]([C@@H](C)O)NC(=O)[C@H](Cc2c[nH]cn2)NC(=O)[C@H](Cc2ccccc2)NC(=O)[C@H]([C@@H](C)O)NC(=O)[C@H](C(C)C)NC(=O)[C@@H](Cc2ccc(O)cc2)NC(=O)CC[C@@H](C(=O)NCC(N)=O)NC(=O)[C@@H]2CCCN2C(=O)[C@@H]2CCCN2C1=O	=	150
